# Tested on: Enterococcus faecalis S613 HM-334
# test protocol: MIC, broth microdilution (CLSI)
# Format: cell-based
# condition summary: Enterococcus faecalis, S613HM334, Table 5; TSB; read-out: MIC
Record form. Attribute: MIC. Fill in for each entry.
Number in µg/mL, nothing else.

Query: Bench note: what MIC did CCCCCCCCCC(=O)N[C@@H](Cc1c[nH]c2ccccc12)C(=O)N[C@H](CC(N)=O)C(=O)N[C@@H](CC(=O)O)C(=O)N[C@@H]1C(=O)NCC(=O)N[C@@H](CCCN)C(=O)N[C@@H](CC(=O)O)C(=O)N[C@H](C)C(=O)N[C@@H](CC(=O)O)C(=O)NCC(=O)N[C@H](CO)C(=O)N[C@@H]([C@H](C)CC(=O)O)C(=O)N[C@@H](CC(=O)c2ccccc2N)C(=O)O[C@@H]1C show?
Reply: 1

Query: Bench note: what MIC did CC(=O)/N=c1/sc(S(N)(=O)=O)nn1C [Methazolamide] show?
Reply: 1

Query: Bench note: what MIC did CC(=O)Nc1nnc(S(N)(=O)=O)s1 [Acetazolamide] show?
Reply: 2

Query: Bench note: what MIC did CC(=O)NC[C@H]1CN(c2ccc(N3CCOCC3)c(F)c2)C(=O)O1 show?
Reply: 1
